tested on: SK-MEL-28 melanoma; experiment: NCI tumour cell line growth inhibition, 48 h
measure-name: TGI

1) O=C(O)c1cc(-c2ccc3c(O)ccc(O)c3c2)ccc1O :: 41.5 µM
2) COC(=O)C12CCC(C(F)(F)C1=O)C2(C)C (stereo unspecified) :: > 100 µM
3) O=c1c2cccnc2[nH]c2ccc3[nH]ncc3c12 :: > 10 µM
4) CCCCOC(=O)NC(Nc1ccc(S(N)(=O)=O)cc1)(C(F)(F)F)C(F)(F)F :: > 100 µM
5) CCCCCCc1nn2c(-c3ccncc3)nnc2s1 :: > 10 µM
6) O=Cc1cc2c(s1)C(=O)c1sccc1C2=O :: 0.334 µM

----------
test system: EKVX NSCLC; assay: NCI tumour cell line growth inhibition, 48 h
As shown below, each of these compounds has a reported TGI value.
measure-name: TGI

1. COc1cccc(C2C(C(=O)O)=C(CO)Oc3cc4c(cc32)OCO4)c1OC (centres undefined) :: > 100 µM
2. CCCCCCCCC1=CCC(CN(C)C)C1=O (centres undefined) :: 48.1 µM
3. COC1CC(OC2C(C)OC(OC3C(C)OC(OC4C(C)OC(O[C@H]5CC[C@@]6(C)C(=CC[C@]7(O)[C@@H]6C[C@@H](OC(=O)/C=C/c6ccccc6)[C@@]6(C)[C@]7(O)CC[C@@]6(O)C(C)=O)C5)CC4OC)CC3OC)CC2OC)OC(C)C1O (some centres undefined) :: > 12.5 µM
4. COc1cccc([C@@]2(O)c3c(ccc(O)c3OC)[C@H]2OC)c1OC :: > 100 µM

----------
system: SF-295 CNS; test: NCI tumour cell line growth inhibition, 48 h; in the data active means GI50 below about 0.43 µM; inactive means the rest
Outcomes: active, inactive

1) C[C@]12CCC3c4ccc(O)cc4CCC3C1CC[C@@]2(O)C#Cc1ccc(C#C/C=C\C#Cc2ccccc2N)cc1 (stereo not given in full) :: inactive
2) FC(F)(F)c1cccc(Nc2nc3ccccc3nc2Nc2cccc(C(F)(F)F)c2)c1 :: inactive
3) O=C1OCC2=C1C(c1cccc(Cl)c1)c1cc3c(cc1N2CCO)OCO3 (stereo not given) :: active
4) Cn1cc(C2=C(c3cn(CCCO)c4ccccc34)C(=O)NC2=O)c2ccccc21 :: inactive
5) NC(=O)c1cccc(N2Cc3ccccc3OC3=C2C(=O)c2c(O)ccc(O)c2C3=O)c1 :: inactive

----------
test system: M19-MEL melanoma; assay: NCI tumour cell line growth inhibition, 48 h
measure-name: TGI

1) COc1cccc(NC(=O)CC(=O)N2NC(c3ccccc3)C(N=Nc3cccc(C(=O)O)c3)C2=O)c1 (centres undefined) :: > 100 µM
2) COc1cccc(C2C(C(=O)O)=C(CO)Oc3cc4c(cc32)OCO4)c1OC (centres undefined) :: > 100 µM
3) CCCCCCC[C@@H](O)CC(=O)NC(CC(C)C)C(=O)NC(CCC(=O)O)C(=O)NC1C(=O)NC(C(C)C)C(=O)NC(CC(C)C)C(=O)NC(CO)C(=O)NC(CC(C)C)C(=O)NC(CO)C(=O)NC(C(C)CC)C(=O)OC1C (some centres undefined) :: 22.6 µM
4) COc1cc(/C=N/c2nncs2)ccc1O :: > 100 µM

----------
test system: COLO 205 colon; experiment: NCI tumour cell line growth inhibition, 48 h
As shown below, each of these molecules has a reported log10(TGI) value.
measure-name: log10(TGI) (log10 of the value in µM)

1) O=C(O)CCCn1c(SCc2c(Cl)cccc2Cl)nc2ccsc2c1=O :: 1.03
2) CCN(CC)CCOc1ccc(/C=C2\CC3C4CC=C5C[C@@H](N6CCCC6)CC[C@]5(C)C4CC[C@]3(C)[C@H]2OC(C)=O)cc1OC (some centres not stated) :: 0.63
3) COc1cc(OC)cc(C(=O)NC2=C(Cl)C(=O)c3ccccc3C2=O)c1 :: 1.19
4) O=C(N/N=C\c1c(O)ccc2ccccc12)C1CC1 :: 1.97
5) COc1c2c(cc3nc4ccccc4nc13)CC[C@H](NC(C)=O)c1cc(=O)c(SC)ccc1-2 :: 0.52
6) Clc1ccc(C2c3ccccc3-c3nccn32)c(Cl)c1 (configuration not stated) :: 1.45
7) FC(F)(F)C1(Cl)C(Cl)(c2ccccc2)C1(Cl)c1ccccc1 (configuration not stated) :: 1.52
8) CO[C@H](C(=O)[C@@H](O)[C@@H](C)O)[C@@H]1Cc2cc3cc(O[C@H]4C[C@@H](O[C@H]5C[C@@H](O)[C@H](O)C(C)O5)[C@H](O)C(C)(O)O4)cc(O)c3c(O)c2C(=O)[C@H]1O[C@H]1C[C@@H](O[C@H]2C[C@@H](O[C@H]3C[C@@H](OC)[C@H](O)C(C)O3)[C@@H](O)C(C)O2)[C@H](O)C(C)O1 (some centres not stated) :: 0.69

----------
As shown below, each of these compounds has a reported log10 TGI value.
tested on: NCI-H23 lung; assay: NCI tumour cell line growth inhibition, 48 h
measure-name: log10 TGI (log10 of the value in µM)

1. CN(C)CCNc1ccc2c(=O)n(CCN(C)C)c(=O)n3c4ccccc4c(=O)c1c23 :: -0.25
2. O=C1c2ccccc2C(=O)c2c(N=Nc3[nH]c(=S)[nH]c3O)cccc21 :: 1.59
3. C[C@@H](O)[C@H]1C(=O)N2C(C(=O)O)=C(SCCN=CN)C[C@H]12 :: 0.68
4. O=C(O)c1cc(-c2ccc3c(O)ccc(O)c3c2)ccc1O :: 1.81
5. CC1=NN(c2nc(N)nc(/C(C#N)=C\C3COc4ccccc4C3=O)n2)C(C)(C)C1 (stereo not drawn) :: 1.96
6. COc1ccc(C(=O)/C=C2\C(=O)Nc3ccc(Br)cc32)cc1 :: 1.21
7. Clc1ccc(C2c3ccccc3-c3nccn32)c(Cl)c1 (stereo not drawn) :: 1.55
8. CN1CCN(c2ccc3nc(-c4c5cccccc-5[nH]c4=O)[nH]c3c2)CC1 :: 1.71
9. C[N+](C)=C/C=C(\Cl)c1ccc2ccccc2c1 :: 1.23
10. COc1cc(OC)cc(C(=O)NC2=C(Cl)C(=O)c3ccccc3C2=O)c1 :: 0.90
11. CCCc1cc(=O)oc2c3c(c4c(c12)OC(C)(C)CC4)O[C@H](C)[C@@H](C)[C@H]3O :: 1.48
12. Cc1cc(Nc2cccc(F)c2)nc(NCc2ccccc2)n1 :: 1.34
13. COc1ccc(P2(=S)Oc3ccc(C(c4ccccc4)(c4ccccc4)c4ccccc4)cc3O2)cc1 (stereo not drawn) :: 1.50
14. c1ccc2c(c1)SC1=Nc3sc4ccccc4[n+]3CN12 :: 1.78
15. COc1c2c(cc3nc4ccccc4nc13)CC[C@H](NC(C)=O)c1cc(=O)c(SC)ccc1-2 :: -0.11
16. O=C(OCCN1CCCCCC1)C(c1ccsc1)C1CCCCC1 (stereo not drawn) :: 1.59
17. Cn1cc(C2=C(c3cn(CCCO)c4ccccc34)C(=O)NC2=O)c2ccccc21 :: 1.26
18. CC1=C(C(=O)CC(=O)C(=O)Nc2ccccc2C(F)(F)F)Sc2ccccc2N1 :: 1.93

----------
As shown below, each of these compounds has a reported TGI value.
system: HT29 colon; experiment: NCI tumour cell line growth inhibition, 48 h
measure-name: TGI (µM)

1. COc1cc(OC)cc(C(=O)NC2=C(Cl)C(=O)c3ccccc3C2=O)c1 :: 10.9
2. CC1(C)C(OC(=O)c2ccccc2)C[C@]23CCC[C@](C)(C[C@@H](O)C12)C3 (stereo not given in full) :: 31.4
3. CC(=O)[CH-]C(C)=O.CC(=O)[CH-]C(C)=O.[CH2-]CCCCCCC.[CH2-]CCCCCCC.[Sn+4] :: 59.6
4. O=Cc1cc2c(s1)C(=O)c1sccc1C2=O :: 3.69

----------
tested on: HCC-2998 colon; assay: NCI tumour cell line growth inhibition, 48 h
As shown below, each of these compounds has a reported TGI value.
measure-name: TGI

1) Nc1nc(N)c2cc(CNc3ccc(C(=O)NC(CC(=O)O)C(=O)O)cc3)ccc2n1 (centres undefined) :: > 82 µM
2) CC(C)[Si]1(C(C)C)OCC2OC(N3C(=O)NC(=O)C[C@@H]3C(O)c3ccccc3)CC2O[Si](C(C)C)(C(C)C)O1 (some centres undefined) :: 4.46 µM
3) CC1=NN(c2nc(N)nc(/C(C#N)=C\C3COc4ccccc4C3=O)n2)C(C)(C)C1 (centres undefined) :: > 100 µM
4) c1cc(-c2ccsc2-c2ccsc2)cs1 :: > 100 µM

----------
tested on: SW-620 colon; test: NCI tumour cell line growth inhibition, 48 h
measure-name: TGI

1) CC(C)c1cc(C(F)(F)F)nc(NNc2nc(C(C)C)cc(C(F)(F)F)n2)n1 :: > 100 µM
2) COC(=O)C(N)CSC(c1ccccc1)(c1ccccc1)c1ccccc1 (stereo unspecified) :: > 100 µM
3) CN(C)c1ccc(/C=C2\Oc3ccccc3C2=O)cc1 :: > 100 µM
4) NC(N)=C1CN(C2CCCCC2)C(=O)NC1=O :: > 100 µM
5) Cn1cc(NC(=O)[C@H]2CCC(N)=N2)cc1C(=O)NCCC(=N)N :: > 100 µM
6) CCN(CC)c1ccc2cc(-c3nc(-c4ccccc4)n[nH]3)c(=O)oc2c1 :: > 100 µM
7) O=C1CCC(O)=C1N=Nc1cc(Cl)cc(Cl)c1 :: > 100 µM
8) O=C(Nc1cccc(-c2cccc(F)c2)c1)C1CCN(Cc2cccc3cccnc23)CC1 :: 3.57 µM
9) O=c1c2cccnc2[nH]c2ccc3[nH]ncc3c12 :: > 10 µM
10) CC(C)[Si]1(C(C)C)OCC2OC(N3C(=O)NC(=O)C[C@@H]3C(O)c3ccccc3)CC2O[Si](C(C)C)(C(C)C)O1 (stereo partly specified) :: 9 µM
11) CC1(C)C(OC(=O)c2ccccc2)C[C@]23CCC[C@](C)(C[C@@H](O)C12)C3 (stereo partly specified) :: 27.9 µM
12) O=C(N/N=C\c1c(O)ccc2ccccc12)C1CC1 :: > 100 µM
13) Cc1ccc2nc(NC(=O)C(=O)C3C(=O)NC(=S)NC3=O)sc2c1 :: > 100 µM
14) COc1ccc(CCn2nccc2C)cc1 :: > 100 µM
15) CN1CCN(CC(=O)Nc2cccc3ccccc23)CC1 :: > 100 µM
16) CCC12CCCN(Cc3ccccc3)C1c1c(n(C)c3ccccc13)[C@H](C(=O)OC)C2 (stereo partly specified) :: > 239 µM
17) COC(=O)C1=C2SCc3ccc(cc3)CSC3=C(C(=O)OC)SC(=C(S2)S1)S3 :: > 100 µM
18) CCOC(=O)C1=C(C)N(c2ccc(OC)cc2)C2(O)C=CC(=O)C3C(=O)N(c4ccccc4)C(=O)C132 (stereo unspecified) :: 3.83 µM
19) NC(=O)c1cccc(N2Cc3ccccc3OC3=C2C(=O)c2c(O)ccc(O)c2C3=O)c1 :: 1.03 µM
20) Cc1cc(O)c2c3c1C(=O)Oc1c(CO)c(O)c(C(=O)O)c(c1O3)C=NN=Cc1c3c(c(CO)c(O)c1C(=O)O)OC(=O)c1c(C)cc(O)c(c1O3)C=NN=C2 :: > 100 µM
21) C/C=N\n1c(C)n[nH]c1=O :: > 100 µM
22) O=c1[nH]c(=S)[nH]c2c1C(c1ccc(Cl)cc1)c1c([nH]c(=S)[nH]c1=O)O2 :: > 100 µM
23) CCOC(=O)N/N=C(\Cc1ccccc1)OCC :: > 100 µM
24) COC(=O)C12CCC(C(F)(F)C1=O)C2(C)C (stereo unspecified) :: > 100 µM
25) Cc1cc(C)c2cc(N)c(Cl)nc2n1 :: > 100 µM
26) Cc1ccc2c(c1)C(=O)c1[nH]c3ccc(F)cc3c1CO2 :: > 100 µM
27) CC(=O)c1cc2c(c(O)c1C)C(=O)C(=O)c1c(O)cccc1-2 :: 0.387 µM
28) CCN(CC)CCOc1ccc(/C=C2\CC3C4CC=C5C[C@@H](N6CCCC6)CC[C@]5(C)C4CC[C@]3(C)[C@H]2OC(C)=O)cc1OC (stereo partly specified) :: 1.92 µM
29) Cc1ccc(C2c3c(n(C)c(=O)n(C)c3=O)OC(N(C)C)(N(C)C)C2(F)F)cc1 (stereo unspecified) :: > 100 µM
30) Cc1ccc(C2=C(c3ccc(C)cc3)C3(c4ccc(C)cc4)[C@@H](C#N)[C@H](C#N)C2(c2ccc(C)cc2)S3=O)cc1 (stereo partly specified) :: > 100 µM
31) COc1c2c(cc3nc4ccccc4nc13)CC[C@H](NC(C)=O)c1cc(=O)c(SC)ccc1-2 :: > 100 µM
32) Cc1noc(C)c1C1=CCCCc2ccccc21 :: > 100 µM
33) CC(C)NCC(O)c1cc(OCc2ccccc2)c(OCc2ccccc2)cc1NC(=O)CCC(=O)O (stereo unspecified) :: 7.51 µM
34) COC1CC(OC2C(C)OC(OC3C(C)OC(OC4C(C)OC(O[C@H]5CC[C@@]6(C)C(=CC[C@]7(O)[C@@H]6C[C@@H](OC(=O)/C=C/c6ccccc6)[C@@]6(C)[C@]7(O)CC[C@@]6(O)C(C)=O)C5)CC4OC)CC3OC)CC2OC)OC(C)C1O (stereo partly specified) :: > 12.5 µM
35) N#CC1(C#N)C2=C(CCCC2)NC(c2ccc(Br)cc2)C1(C#N)C#N (stereo unspecified) :: 2.88 µM
36) CC(C)C(Br)CC/C(CBr)=C(\Cl)CCl (stereo unspecified) :: 3.94 µM
37) CCN(CC)CCN1C=CC(C)C(C(=O)O)C1C(N)=O (stereo unspecified) :: > 100 µM
38) CN=C(NN)NS(=O)(=O)c1cc(C)c(Cl)cc1S :: > 100 µM
39) O=C1C=CC(=O)c2ccc(=O)ccc21 :: 14.4 µM
40) Cc1c(C(N)=O)sc2c1c(=O)n(Cc1ccccc1)c1nnc(SCC(=O)Nc3ccc(Cl)cc3)n21 :: > 100 µM
41) CC1(CO)OC(n2cnc3cncnc32)CC1O (stereo unspecified) :: > 100 µM
